test system: IGROV-1; test: NCI tumour cell line growth inhibition, 48 h
Active and inactive are the calls of the source. No stated cut-off is given here; in the data, active = GI50 up to about 1.1 µM and inactive = higher.
// one of active, inactive, no free text

Known results for compounds:
compound	experimental.target	class.label
COC1=CC2(C=CC1=O)c1cc(OC)c(OC)cc1CCN2C(=O)c1ccccc1 (centres undefined)	IGROV-1	inactive
CCOC(=O)Cc1nnc2n(-c3ccccc3)c(=O)c3ccccc3n12	IGROV-1	inactive
O=S(=O)(c1ccccc1)N1CCN(S(=O)(=O)c2ccccc2)c2ccccc21	IGROV-1	inactive
O=C(Nc1nncs1)NS(=O)(=O)n1cnc2ccccc21	IGROV-1	inactive
Cc1nnc(N)nc1C/C=C/C(Sc1ccc(Cl)cc1)c1ccccc1 (centres undefined)	IGROV-1	inactive
CC(C)Cc1ccc(C(C)C(=O)N2CCN(/C=C/c3ccccc3)CC2)cc1 (centres undefined)	IGROV-1	inactive

Asked: Query: recorded result category for OCCCNc1[nH]cnc2nncc1-2 in this test
Given back: inactive

Asked: Query: recorded result category for CC12CCc3ccccc3C1=NNC(=O)C2 (centres undefined) in this test
Given back: inactive

Asked: Query: recorded result category for COC(=O)C1(F)C(=O)NC(=O)NC1OC (centres undefined) in this test
Given back: inactive

Asked: Query: recorded result category for NC(=S)/N=C(/c1nc2ccc(Cl)cc2nc1O)C(O)c1ccccc1Cl (centres undefined) in this test
Given back: inactive

Asked: Query: recorded result category for CCC12CCCN(Cc3ccccc3)C1c1c([nH]c3ccccc13)C(C(=O)OC)C2 (centres undefined) in this test
Given back: inactive

Asked: Query: recorded result category for CSC(C1c2ccccc2N(C)c2[nH]c(=O)n(C)c(=O)c21)S(=O)(=O)c1ccc(C)cc1 (centres undefined) in this test
Given back: inactive

Asked: Query: recorded result category for N=c1c2c(ncn1N)Oc1c(c(-c3ccccc3)nn1-c1ccccc1)C2c1ccc(Cl)cc1 (centres undefined) in this test
Given back: inactive

====

tested on: KM-20L2; test: NCI tumour cell line growth inhibition, 48 h
The source made the active and inactive calls. Rule as the data show it: active = GI50 up to about 1.1 µM and inactive = higher.
metric.name: GI50

Example entries begin here.
> print(dat)
                                   compound               result
1  FC(F)(F)c1nc(-c2ccccc2)oc1Sc1oc(-c2ccccc2)nc1C(F)(F)F  > 100 µM (inactive)
2  N=C(N)N/N=C(/c1nc2ccc([N+](=O)[O-])cc2[nH]c1=O)C(O)c1ccc([N+](=O)[O-])cc1 (centres undefined)     18 µM (inactive)
3  CCOC(=O)c1c(-c2ccccc2)oc(-c2ccccc2)c1C(=O)OCC   38.9 µM (inactive)
4  CC(C)Cc1ccc(C(C)C(=O)N2CCN(/C=C/c3ccccc3)CC2)cc1 (centres undefined)   15.5 µM (inactive)
5         CS(=O)(=O)NNS(=O)(=O)c1ccc(Cl)cc1  > 100 µM (inactive)
6  COC(=O)[C@H](Cc1ccccc1)NC(=O)/C(=C/C(C)C)NC(=O)[C@H](CCSC)NC=O  > 100 µM (inactive)

Asked: Requested read-out: GI50. Entry: O=[N+]([O-])c1ccc(-c2ccc(-c3csc(Nc4ccccc4)n3)o2)cc1
Given back: 21 µM (inactive)

Asked: Requested read-out: GI50. Entry: O=c1cc[nH]c2c1ccc1ncccc12
Given back: > 100 µM (inactive)

Asked: Requested read-out: GI50. Entry: O=C(Cc1ccccc1)NN1C(=O)C(Cl)C1c1ccc(Cl)cc1 (centres undefined)
Given back: > 100 µM (inactive)
